Below, each of the compounds is paired with its reported IC50 value.
Molecular target: BRD4-BD2 (Homo sapiens (Human))
Assay: BRD4 AlphaScreen assay (BRD4-BD2)
Conditions: H4Ac4 peptide, read-out: BRD4 BD-2 enzyme IC50
Where a name gives a salt, the structure may show the parent alone.
attribute measured: IC50

* Cc1nnc2ccc3c(cc(-c4nnco4)n3Cc3cccc(Cl)c3)n12 [Example 141, trifluoroacetate salt] | ≤ 0.1 µM
* Cc1nnc2ccc3c(cc(-c4ccn(C5CNC5)n4)n3Cc3cccc(Cl)c3)n12 [Example 156, bis(trifluoroacetate) salt] | ≤ 0.1 µM
* Cc1nnc2ccc3c(cc(-c4ccn(C5CN(S(C)(=O)=O)C5)n4)n3Cc3cccc(Cl)c3)n12 [Example 109] | ≤ 0.1 µM
